# SYSTEM_UNDER_TEST: Aβ aggregates in the high molecular weight (HMW) fraction of pooled soluble human AD brain extract (>70 kDa to ~700 kDa) (human) (UniProt P05067)
# MEASUREMENT_PROTOCOL: SPR, immobilized antibody, brain extract fraction at 100 µg/ml injected; Study 2
Entries and their measured Binding to HMW (BRU) follow.
Value expressed in BRU; do not type the unit.

Clone 5 (affinity matured VH with parental Vk, human IgG4 S241P / kappa) (antibody, V domains shown) VH: QVQLVQSGAEVKKPGASVKMSCKASGYSFTSYWINWVKQRPGQGLEWIGDVHPGRGVSTYNAKFKSRATLTLDTSISTAYMELSSLRSEDTAVYYCARGALSPYWFFDVWGQGTTVTVSS VL: DVLMTQSPLSLPVTLGQPASISCRSSQSIVHSNGNTYLEWYQQRPGQSPRLLIYKVSNRFSGVPDRFSGSGSGTDFTLKISRVEAEDVGVYYCFQGSHVPFTFGQGTKLEIKR: 6.57
parental antibody, PMN310 humanized antibody variant VH2/Vk5 (human IgG4 S241P / kappa) (antibody, V domains shown) VH: QVQLVQSGAEVKKPGASVKMSCKASGYSFTSYWINWVKQRPGQGLEWIGDVHPGRGVSTYNAKFKSRATLTLDTSISTAYMELSSLRSEDTAVYYCSRSHGNTYWFFDVWGQGTTVTVSS VL: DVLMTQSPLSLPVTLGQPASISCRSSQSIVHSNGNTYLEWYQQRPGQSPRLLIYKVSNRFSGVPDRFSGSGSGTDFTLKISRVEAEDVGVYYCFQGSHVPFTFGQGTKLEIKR: 13.5
Clone 4 (affinity matured VH with parental Vk, human IgG4 S241P / kappa) (antibody, V domains shown) VH: QVQLVQSGAEVKKPGASVKMSCKASGYSFTSYWINWVKQRPGQGLEWIGDVHPGRGVSTYNAKFKSRATLTLDTSISTAYMELSSLRSEDTAVYYCARVSPTGYWFFDVWGQGTTVTVSS VL: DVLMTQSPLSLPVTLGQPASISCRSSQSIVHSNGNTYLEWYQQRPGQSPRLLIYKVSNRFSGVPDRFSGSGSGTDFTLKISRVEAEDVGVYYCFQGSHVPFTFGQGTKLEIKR: 11.2

In the following, a different binder is considered.
Problem: # input binder: Clone 14 (affinity matured VH with parental Vk, human IgG4 S241P / kappa) (antibody, V domains shown) VH: QVQLVQSGAEVKKPGASVKMSCKASGYSFTSYWINWVKQRPGQGLEWIGDVHPGRGVSTYNAKFKSRATLTLDTSISTAYMELSSLRSEDTAVYYCAKSDASGYWFFDVWGQGTTVTVSS VL: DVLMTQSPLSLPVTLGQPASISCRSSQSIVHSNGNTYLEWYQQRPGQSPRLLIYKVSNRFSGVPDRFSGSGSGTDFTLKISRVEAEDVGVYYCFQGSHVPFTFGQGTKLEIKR ; wanted: its Binding to HMW (BRU)
Result: 7.55
